- protocol: Liver Microsome stability (In Vitro Metabolism)
- Assay type: in vitro ADME
- conditions-used: Monkey liver microsomes
readout-label: half-life at 1 µM

>  <molecule>
C[C@@H]1[C@H](O)[C@@H](C)/C=C/C=C/C=C/C=C/C=C/C=C/C=C/[C@H](OC2O[C@H](C)[C@@H](O)[C@H](N)[C@@H]2O)C[C@@H]2O[C@](O)(C[C@@H](O)C[C@@H](O)[C@H](O)CC[C@@H](O)C[C@@H](O)CC(=O)O[C@H]1C)C[C@H](O)[C@H]2C(=O)O (stereo partly shown) [AmB, Amphotericin B]

>  <readout-label>
half-life at 1 µM

>  <assay-result>
> 2.42 h

$$$$

Values were extracted from patent US20230016424A1.
